- Test system: BJeLR fibroblast viability, Alamar Blue fluorescence, 48 h
- test protocol: BJeLR fibroblast growth inhibition, viability readout – cell-based, alamar blue fluorescence, 48 h, cherrypicked samples, dose response (AID 2610);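 note: BJ fibroblasts with hTERT plus SV40 large and small T and HRAS V12; EC50 for loss of viable cells so potency reflects cytotoxic compounds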
Inconclusive results are not listed. Calls of active or inactive are those of the source.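 Rule for the calls: active = EC50 no more than tenfold above the top concentration tested, with valid fit and all samples agreeing; inconclusive = flat fit at 30 to 70% inhibition, poor fit, or split samples; inactive = EC50 beyond tenfold the top concentration tested.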
Select the correct class. Options are active, inactive and nothing else.

compound: COc1ccc2[nH]c3c(NCCC4=CCCCC4)ncnc3c2c1
group label: inactive
//
compound: Cc1nc2ccc(CN(C)c3ccc(C(=O)N[C@@H](CCC(=O)O)C(=O)O)s3)cc2c(=O)[nH]1
group label: inactive
//
compound: Cc1nc(N)nc(N)c1CCCc1ccc(Cl)c(Cl)c1
group label: inactive
//
compound: CCCCCCCCCCCCn1ccc(=N)cc1
group label: active
//
compound: Cc1ccc(/C=N/NC(=O)c2n[nH]c3c2CCCC3)cc1
group label: active

Shifting focus to the compound that follows.
Given "COc1ccc(N/C=C/C(=O)c2cc(OC)c(OC)c(OC)c2)cc1" , state the outcome it received in this test. active

###

- Tested on: BJeLR fibroblast viability, Alamar Blue fluorescence, 48 h
- test protocol: BJeLR fibroblast growth inhibition, viability readout – cell-based, alamar blue fluorescence, 48 h, cherrypicked samples, dose response (AID 2610)
Inconclusive results are not listed.
Would you mind telling me the reported EC50 of each entry?

As a guide, the following entries are already answered.
molecule: CCSc1cc(C2C(C#N)=C(N)Oc3n[nH]c(C)c32)c(C)o1 (stereo not given)
EC50: 11500 nM
//
molecule: Cc1cccc(NS(=O)(=O)c2ccc(-c3cnc(C4CC4)o3)cc2)c1C
EC50: < 104 nM
//
molecule: CC[C@@]1(O)C(=O)OCc2c1cc1n(c2=O)Cc2cc3ccccc3nc2-1
EC50: < 30.4 nM
//
molecule: C=C1C(=O)C=C2CN(C(=O)c3ccccc3)[C@@](Cc3ccc(F)cc3)(C(=O)OC)[C@@H]12
EC50: 140 nM

Provide the reported EC50 (system: BJeLR fibroblast viability, Alamar Blue fluorescence, 48 h) for "CCOC(=O)c1c(C)[nH]c2c1-c1ccccc1C(=O)C2=O" 492 nM

###

- System: BJeLR fibroblast viability, Alamar Blue fluorescence, 48 h
- test protocol: BJeLR fibroblast growth inhibition, viability readout – cell-based, alamar blue fluorescence, 48 h, cherrypicked samples, dose response (AID 2610)
Records with an inconclusive call do not appear. The source made the active and inactive calls.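 The calls were made as follows: active = EC50 no more than tenfold above the top concentration tested, with valid fit and all samples agreeing; inconclusive = flat fit at 30 to 70% inhibition, poor fit, or split samples; inactive = EC50 beyond tenfold the top concentration tested.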
Tick one outcome: true (active), false (inactive)

Completed entries (count: 5):
molecule: Cc1cccc(N(C)S(=O)(=O)c2ccc(-c3cnc(C4CC4)o3)cc2)c1
study target: BJeLR fibroblast viability, Alamar Blue fluorescence, 48 h
group label: true
//
molecule: COc1ccc2c(c1)sc(N)[n+]2Cc1cc(C)cc2cccnc12
study target: BJeLR fibroblast viability, Alamar Blue fluorescence, 48 h
group label: true
//
molecule: Cc1occc1C(=O)N/N=C/c1ccc(-c2ccccc2)cc1
study target: BJeLR fibroblast viability, Alamar Blue fluorescence, 48 h
group label: false
//
molecule: Nc1nc(CCl)nc(N(c2ccccc2)c2ccccc2)n1
study target: BJeLR fibroblast viability, Alamar Blue fluorescence, 48 h
group label: true
//
molecule: CC(C)C(=O)Nc1ccc(C(=O)NCc2cccnc2)cc1
study target: BJeLR fibroblast viability, Alamar Blue fluorescence, 48 h
group label: true

Outcome? "Cc1cccc(Nc2nc(N)nc(CCl)n2)c1" true

Dear colleague, could you share the recorded outcome for CC(Oc1ccc(Cl)cc1Cl)c1nc(-c2ccc(NC(=O)c3cccnc3)cc2)no1 (configuration not stated) when you have a moment? true

Which result was noted for this molecule in the test: "COc1cccc(CSc2nc3ccccc3cc2C=O)c1" true

###

- System: BJeLR fibroblast viability, Alamar Blue fluorescence, 48 h
- test protocol: BJeLR fibroblast growth inhibition, viability readout – cell-based, alamar blue fluorescence, 48 h, cherrypicked samples, dose response (AID 2610);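 note: BJ fibroblasts with hTERT plus SV40 large and small T and HRAS V12; EC50 for loss of viable cells so potency reflects cytotoxic compounds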
Inconclusive results are not listed.
I'd be grateful if you could share measured EC50 for these entries.

compound: CCCCc1c(C)c(C#N)c2nc3ccccc3n2c1Cl
EC50: 587 nM

compound: CC1=CC(C)(C)N(S(=O)(=O)c2ccc(C)cc2)c2cc(C)ccc21
EC50: 386 nM

compound: CCCOc1ccc(C(=O)C(CCC(CNCC)C(=O)c2ccc(OCCC)cc2)CNCC)cc1 (stereo not given)
EC50: 638 nM

compound: COc1cccc(C(=O)N/N=C(/c2ccccc2)c2ccccn2)c1
EC50: 821 nM

compound: CC[C@@]1(O)C(=O)OCc2c1cc1n(c2=O)Cc2cc3c(N)cccc3nc2-1
EC50: < 30.7 nM

Provide EC50 for all items below, preserving their order.
1. N#Cc1c(NC(=O)/C=C/c2ccco2)sc2c1CCCC2
2. CCOC(=O)/C(=C\c1cccnc1)C(=O)c1cc(C(C)=O)c(Nc2ccccc2)s1

< 104 nM
575 nM

For every record below, what is its EC50?
1. CCN(CC)c1ccc2c(cc1=O)[C@@H](NC)CCc1cc(OC)c(OC)c(OC)c1-2
2. CCCC(=O)OCCNc1cc(Sc2nccn2C)c2nonc2c1[N+](=O)[O-]
3. CC[C@@]1(O)C(=O)OCc2c1cc1n(c2=O)Cc2cc3c(NC(=O)CN)cccc3nc2-1

1. 380 nM
2. 2510 nM
3. 292 nM

###

- Tested on: BJeLR fibroblast viability, Alamar Blue fluorescence, 48 h
- test protocol: BJeLR fibroblast growth inhibition, viability readout – cell-based, alamar blue fluorescence, 48 h, cherrypicked samples, dose response (AID 2610);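 note: BJ fibroblasts with hTERT plus SV40 large and small T and HRAS V12; EC50 for loss of viable cells so potency reflects cytotoxic compounds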
Records with an inconclusive call do not appear. Activity calls are given as the source filed them.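 The calls were made as follows: active = EC50 no more than tenfold above the top concentration tested, with valid fit and all samples agreeing; inconclusive = flat fit at 30 to 70% inhibition, poor fit, or split samples; inactive = EC50 beyond tenfold the top concentration tested.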
// classify into active, inactive

Which outcome was entered for the compound "CCN1CCN(CCNC(=O)c2ccc(/C=C3/Sc4ccccc4N(Cc4ccccc4C)C3=O)cc2)CC1" in this test? inactive

Test call for this compound, please: "COc1ccc(-c2nnc(NC(=O)c3ccc(S(=O)(=O)N4CCc5ccccc5C4)cc3)o2)cc1" active

###

- Tested on: BJeLR fibroblast viability, Alamar Blue fluorescence, 48 h
- test protocol: BJeLR fibroblast growth inhibition, viability readout – cell-based, alamar blue fluorescence, 48 h, cherrypicked samples, dose response (AID 2610);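 note: BJ fibroblasts with hTERT plus SV40 large and small T and HRAS V12; EC50 for loss of viable cells so potency reflects cytotoxic compounds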
Records with an inconclusive call do not appear. Activity calls are given as the source filed them.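 How the source made its calls: active means EC50 no more than tenfold above the top concentration tested, with valid fit and all samples agreeing; inconclusive means flat fit at 30 to 70% inhibition, poor fit, or split samples; inactive means EC50 beyond tenfold the top concentration tested.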
Classes to choose from: True = active, False = inactive

Reference set, count: 2
molecule: COc1ccc(C(C(=O)NC2CCCCC2)N(C(=O)CCl)c2cccc(Cl)c2)cc1 (stereo unspecified)
group label: True
//
molecule: COc1ccccc1-c1nnc2sc(-c3ccc(N(C)C)cc3)nn12
group label: True

Can you look up the reported call for "Cc1ccc(N=Cc2c(C)[nH]n(-c3nc4ccccc4[nH]3)c2=O)cc1" for me? False

Check the results log: what was the call for "CCCCCCCCCC[n+]1cccc2c3ccccc3ccc21" ? True

Please state the recorded outcome for this molecule: "COc1cc(OC)cc(C(=O)N[C@H](C(=O)Nc2nc3ccccc3[nH]2)C(C)C)c1" True

Entry Cc1ccccc1OCC(O)CNC1CCC(NCC(O)COc2ccccc2C)CC1 (stereo unspecified) : call = ? True

Hey, what did the test say about "O=[N+]([O-])c1cc(Br)c(Nc2ccccc2)c([N+](=O)[O-])c1" ? True

Please let me know the test result on file for "Oc1ccccc1N=Nc1nc(-c2ccccc2)c(-c2ccccc2)[nH]1" . True

What was the test verdict on COc1ccccc1C1C2=C(COC2=O)Nc2cc3c(cc21)OCO3 (stereo unspecified) ? True

Please indicate how the test categorized "COc1ccc(OC)c2c1C(=O)C(Cl)=C(Cl)C2=O" . True

So what was the verdict on "Nc1nc(CCl)nc(Nc2cccc3ccccc23)n1" in this test? True

Lab log entry: "CCOc1ccc2c(c1)C(C)=CC(C)(C)N2S(=O)(=O)c1ccc(NC(C)=O)cc1" — outcome as called in the assay? True

Query: recorded result category for "COc1cc([C@@H]2c3cc4c(cc3[C@@H](NC3CCN(Cc5ccccc5)CC3)[C@H]3COC(=O)[C@H]23)OCO4)cc(OC)c1O" in this test True

Entry "O=C(N/N=C/c1cc2c3c(c1O)CCCN3CCC2)c1ccccc1O" : call = ? True

For "Nc1nc(N)c2c(ccc3nccc32)[nH]1" , what call appears in the results of this test? False

Which outcome was entered for the molecule COc1cc(OC)c(C2=NOC(C(=O)NCc3cccs3)C2)cc1Cl (stereo unspecified) in this test? True

Short answer needed: outcome of this test for "Cc1ccc(-c2nnc(SCC(=O)Nc3ccccc3F)o2)cc1" ? False

Test call, this molecule: "COc1cccc2c1C(=O)c1c(O)c3c(c(O)c1C2=O)C[C@@](O)(C(=O)CO)C[C@@H]3O[C@H]1C[C@H](N)[C@H](O)[C@H](C)O1" True

Called result for "O=C(N/N=C/c1ccccc1Cl)c1[nH]c2ccc(Br)cc2c1-c1ccccc1" True

Hi, sorry to bother you, what did the test record for "Cc1ccc(Nc2nc(N)nc(CCl)n2)c(C)c1" ? True

Which outcome was assigned to "O=S1(=O)C=C(Sc2nc3ccccc3s2)c2ccccc21" in this test? True
